- Method Summary: cAMP Responsive Elements (CRE) small molecule agonists, cell-based qHTS assay (AID 1963590)
- Assay Context: CRE-bla HEK293T, beta-lactamase FRET ratio, 3 h; series mostly up to 92.4 µM
Results filed as inconclusive are left out. The source made the active and inactive calls. The call rests on the fitted dose curve.
Assay Metric: activation

C[C@H]1C(=O)O[C@@H]2CCN3CC=C(COC(=O)[C@](C)(O)[C@]1(C)O)[C@H]23	inactive
COc1nc(NC(C)C)nc(NC(C)C)n1	inactive
CCCCCCCCCCCCn1cc[n+](C)c1	inactive
CCCCC(CC)COC(=O)Cl (centres undefined)	inactive
CCCC[N+]1(C)CCCC1 (tested in a mixture with another compound)	inactive

Challenge: Provide measured activation value, entry: c1ccc2sc(SNC3CCCCC3)nc2c1
Response given: inactive

Challenge: State, in one line, measured activation of Cn1c(N)nc2c3cccnc3ccc21
Response given: inactive

Challenge: Give reported activation value for C=CCO
Response given: inactive

Challenge: Report activation, nothing else, for this compound: N#Cc1ccc(Cl)cc1
Response given: inactive

Challenge: Look up and state reported activation for ClCC(Cl)CCl
Response given: inactive

Challenge: Please supply the value of reported activation for the item O=C(O)C(Br)Br
Response given: inactive

Origin of the recorded values: PubChem BioAssay (Tox21)
